- Species on record: Rattus norvegicus
- experiment_notes: Open TG-GATES - Regimen: Daily Repeat
- Format: toxicity, organism-based, Sprague-Dawley
- Design: regimen Daily Repeat, gender Male, age 6 weeks
- test_conditions: in vivo, po, 100 mg/kg, […], tissue Blood, route gavage, dose level Low, time 28 day
measured_quantity: Fbg (mg/dL)
Give bare numbers, in mg/dL.

| compound | readout_unit | Fbg |
| --- | --- | --- |
| CN/C(=N/CCSCc1nc[nH]c1C)NC#N [CIMETIDINE] | mg/dL | 217.4 |
| Cc1nnc2n1-c1ccc(Cl)cc1C(c1ccccc1Cl)=NC2 [TRIAZOLAM] | mg/dL | 277.4 |
| O=C(OC[C@H]1O[C@@H](OC(=O)c2cc(O)c(O)c(OC(=O)c3cc(O)c(O)c(O)c3)c2)[C@H](OC(=O)c2cc(O)c(O)c(OC(=O)c3cc(O)c(O)c(O)c3)c2)[C@@H](OC(=O)c2cc(O)c(O)c(OC(=O)c3cc(O)c(O)c(O)c3)c2)[C@@H]1OC(=O)c1cc(O)c(O)c(OC(=O)c2cc(O)c(O)c(O)c2)c1)c1cc(O)c(O)c(OC(=O)c2cc(O)c(O)c(O)c2)c1 [TANNIC ACID] | mg/dL | 230 |
| COC(=O)C1=C(C)NC(C)=C(C(=O)OC)C1c1ccccc1[N+](=O)[O-] [NIFEDIPINE] | mg/dL | 281.6 |
| CCOc1ccc(NC(C)=O)cc1 [PHENACETIN] | mg/dL | 278.8 |

Task item: GET /values?readout=Fbg&item= CNC(=C[N+](=O)[O-])NCCSCc1ccc(CN(C)C)o1 [RANITIDINE]
Reply: 228.8

###

Would you kindly list KIDNEY_R for each of these molecules?
- Species: Rattus norvegicus
- experiment_notes: Open TG-GATES - Regimen: Daily Repeat
- Format: toxicity, organism-based, Sprague-Dawley
- Set-up: regimen Daily Repeat, gender Male, age 6 weeks
- test_conditions: in vivo, po, 100 mg/kg, […], tissue Kidney, route gavage, dose level Low, time 7 day
Numbers only, in g.

# count of solved cases: 5
| smiles_notation | KIDNEY_R / g |
| --- | --- |
| O=C(OC[C@H]1O[C@@H](OC(=O)c2cc(O)c(O)c(OC(=O)c3cc(O)c(O)c(O)c3)c2)[C@H](OC(=O)c2cc(O)c(O)c(OC(=O)c3cc(O)c(O)c(O)c3)c2)[C@@H](OC(=O)c2cc(O)c(O)c(OC(=O)c3cc(O)c(O)c(O)c3)c2)[C@@H]1OC(=O)c1cc(O)c(O)c(OC(=O)c2cc(O)c(O)c(O)c2)c1)c1cc(O)c(O)c(OC(=O)c2cc(O)c(O)c(O)c2)c1 | 1 |
| CCOc1ccc(NC(C)=O)cc1 | 1.1 |
| Cc1nnc2n1-c1ccc(Cl)cc1C(c1ccccc1Cl)=NC2 | 1 |
| CNC(=C[N+](=O)[O-])NCCSCc1ccc(CN(C)C)o1 | 1.1 |
| CN/C(=N/CCSCc1nc[nH]c1C)NC#N | 1.1 |

We next turn to a different molecule, shown below.
Task item: GET /values?readout=KIDNEY_R&item= `COC(=O)C1=C(C)NC(C)=C(C(=O)OC)C1c1ccccc1[N+](=O)[O-]`
Reply: 1.1

###

- Species on record: Rattus norvegicus
- experiment_notes: Open TG-GATES - Regimen: Daily Repeat
- Assay type: toxicity, organism-based, Sprague-Dawley
- Parameters: regimen Daily Repeat, gender Male, age 6 weeks
- test_conditions: in vivo, po, 100 mg/kg, 72 h, tissue Plasma, route gavage, dose level Low, time 3 day
measured_quantity: ALT

# count of solved cases: 3
| compound | measured_quantity | reported_result |
| --- | --- | --- |
| CN/C(=N/CCSCc1nc[nH]c1C)NC#N [CIMETIDINE] | ALT | 37 IU/L |
| CNC(=C[N+](=O)[O-])NCCSCc1ccc(CN(C)C)o1 [RANITIDINE] | ALT | 34.6 IU/L |
| CCOc1ccc(NC(C)=O)cc1 [PHENACETIN] | ALT | 40 IU/L |

Go through the list and state ALT for each entry.
1. Cc1nnc2n1-c1ccc(Cl)cc1C(c1ccccc1Cl)=NC2 [TRIAZOLAM]
2. COC(=O)C1=C(C)NC(C)=C(C(=O)OC)C1c1ccccc1[N+](=O)[O-] [NIFEDIPINE]

Reply:
1. 53.8 IU/L
2. 46.6 IU/L

Task item: GET /values?readout=ALT&item= O=C(OC[C@H]1O[C@@H](OC(=O)c2cc(O)c(O)c(OC(=O)c3cc(O)c(O)c(O)c3)c2)[C@H](OC(=O)c2cc(O)c(O)c(OC(=O)c3cc(O)c(O)c(O)c3)c2)[C@@H](OC(=O)c2cc(O)c(O)c(OC(=O)c3cc(O)c(O)c(O)c3)c2)[C@@H]1OC(=O)c1cc(O)c(O)c(OC(=O)c2cc(O)c(O)c(O)c2)c1)c1cc(O)c(O)c(OC(=O)c2cc(O)c(O)c(O)c2)c1 [TANNIC ACID]
Reply: 33.4 IU/L

###

- Species on record: Rattus norvegicus
- experiment_notes: Open TG-GATES - Regimen: Daily Repeat
- Assay type: toxicity, organism-based, Sprague-Dawley
- Set-up: regimen Daily Repeat, gender Male, age 6 weeks
- test_conditions: in vivo, po, 0 mg/kg, […], route gavage, dose level Control, time 7 day
measured_quantity: TERMINAL_BW (g)
Give bare numbers, in g.

| molecule | measured_quantity | reported_result |
| --- | --- | --- |
| COC(=O)C1=C(C)NC(C)=C(C(=O)OC)C1c1ccccc1[N+](=O)[O-] | TERMINAL_BW | 262.8 |
| CN1C(=O)CCS(=O)(=O)C1c1ccc(Cl)cc1 (configuration not stated) | TERMINAL_BW | 269.2 |

Go through the list and state TERMINAL_BW for each entry.
1. CN/C(=N/CCSCc1nc[nH]c1C)NC#N
2. CCCc1cc(=O)[nH]c(=S)[nH]1
3. CNC(=C[N+](=O)[O-])NCCSCc1ccc(CN(C)C)o1
4. Nc1c2c(nc3ccccc13)CCCC2

Reply:
[261.3, 242.6, 265.4, 252.2]

Task item: GET /values?readout=TERMINAL_BW&item= `O=C(OC[C@H]1O[C@@H](OC(=O)c2cc(O)c(O)c(OC(=O)c3cc(O)c(O)c(O)c3)c2)[C@H](OC(=O)c2cc(O)c(O)c(OC(=O)c3cc(O)c(O)c(O)c3)c2)[C@@H](OC(=O)c2cc(O)c(O)c(OC(=O)c3cc(O)c(O)c(O)c3)c2)[C@@H]1OC(=O)c1cc(O)c(O)c(OC(=O)c2cc(O)c(O)c(O)c2)c1)c1cc(O)c(O)c(OC(=O)c2cc(O)c(O)c(O)c2)c1`
Reply: 253.1

###

Would you kindly list LDH for each of these compounds?
- Species: Rattus norvegicus
- experiment_notes: Open TG-GATES - Regimen: Daily Repeat
- Assay type: toxicity, organism-based, Sprague-Dawley
- Set-up: regimen Daily Repeat, gender Male, age 6 weeks
- test_conditions: in vivo, po, 100 mg/kg, […], tissue Plasma, route gavage, dose level Low, time 28 day
Numbers only, in IU/L.

| smiles_notation | reported_result |
| --- | --- |
| COC(=O)C1=C(C)NC(C)=C(C(=O)OC)C1c1ccccc1[N+](=O)[O-] | 61.8 |

Go through the list and state LDH for each entry.
1. Cc1nnc2n1-c1ccc(Cl)cc1C(c1ccccc1Cl)=NC2
2. CN/C(=N/CCSCc1nc[nH]c1C)NC#N
3. CNC(=C[N+](=O)[O-])NCCSCc1ccc(CN(C)C)o1
4. O=C(OC[C@H]1O[C@@H](OC(=O)c2cc(O)c(O)c(OC(=O)c3cc(O)c(O)c(O)c3)c2)[C@H](OC(=O)c2cc(O)c(O)c(OC(=O)c3cc(O)c(O)c(O)c3)c2)[C@@H](OC(=O)c2cc(O)c(O)c(OC(=O)c3cc(O)c(O)c(O)c3)c2)[C@@H]1OC(=O)c1cc(O)c(O)c(OC(=O)c2cc(O)c(O)c(O)c2)c1)c1cc(O)c(O)c(OC(=O)c2cc(O)c(O)c(O)c2)c1
5. CCOc1ccc(NC(C)=O)cc1

Reply:
1: 67.2; 2: 186; 3: 164.4; 4: 78.2; 5: 66.6

###

- Organism: Rattus norvegicus
- experiment_notes: Open TG-GATES - Regimen: Daily Repeat
- Type: toxicity, organism-based, Sprague-Dawley
- Set-up: regimen Daily Repeat, gender Male, age 6 weeks
- test_conditions: in vivo, po, 300 mg/kg, […], tissue Plasma, route gavage, dose level Middle, time 28 day
Would you kindly list Na for each of these compounds?
Give bare numbers, in meq/L.

# count of solved cases: 2
| smiles_notation | Na / meq/L |
| --- | --- |
| O=C(OC[C@H]1O[C@@H](OC(=O)c2cc(O)c(O)c(OC(=O)c3cc(O)c(O)c(O)c3)c2)[C@H](OC(=O)c2cc(O)c(O)c(OC(=O)c3cc(O)c(O)c(O)c3)c2)[C@@H](OC(=O)c2cc(O)c(O)c(OC(=O)c3cc(O)c(O)c(O)c3)c2)[C@@H]1OC(=O)c1cc(O)c(O)c(OC(=O)c2cc(O)c(O)c(O)c2)c1)c1cc(O)c(O)c(OC(=O)c2cc(O)c(O)c(O)c2)c1 | 139.5 |
| Cc1nnc2n1-c1ccc(Cl)cc1C(c1ccccc1Cl)=NC2 | 142 |

Task item: GET /values?readout=Na&item= `COC(=O)C1=C(C)NC(C)=C(C(=O)OC)C1c1ccccc1[N+](=O)[O-]`
Reply: 143.8
